Test: Metabolic stability in human liver microsomes
Assay type: in vitro ADME
Settings: pH 7.4, read-out: t1/2 in liver microsomes
quantity_name: half-life at 1 μM

Reported half-life at 1 μM of O=C(N/N=C/c1cccc(O)c1Cl)c1cnc(-c2cccnn2)[nH]c1=O : > 1.67 h

---

Assay: Acute oral toxicity assay
Type: in vivo
Settings: both sexes, mouse, in vivo, 400 mg·kg-1; ICR mice, single oral administration
quantity_name: LD50

Per the record, O=C(N/N=C/c1cccc(O)c1Cl)c1cnc(-c2cccnn2)[nH]c1=O [compound 17] has LD50 of > 400 mg/kg

---

Target: human prolyl hydroxylase 2 (PHD2) (Homo sapiens, UniProt Q9GZT9)
Sequence (Q9GZT9 181-426): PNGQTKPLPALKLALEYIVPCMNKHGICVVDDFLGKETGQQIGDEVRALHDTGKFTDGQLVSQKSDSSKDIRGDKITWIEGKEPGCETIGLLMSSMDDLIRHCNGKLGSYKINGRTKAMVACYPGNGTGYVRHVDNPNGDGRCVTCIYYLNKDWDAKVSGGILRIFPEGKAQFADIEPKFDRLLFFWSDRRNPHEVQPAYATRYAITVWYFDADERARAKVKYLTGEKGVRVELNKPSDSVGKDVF
Kindly apply the following: true if Ki is less than 0.2 µM, false in every other case.

Some entries whose results are on file:
smiles	assigned_category
O=C(O)c1cc(/C=N/NC(=O)c2cnc(-c3cccnn3)[nH]c2=O)ccc1O	true
O=C(N/N=C/c1cccc(O)c1Cl)c1cnc(-c2ccccn2)[nH]c1=O	true
O=C(N/N=C/c1cc(O)c(O)c(O)c1)c1cnc(-c2ccccn2)[nH]c1=O	true
O=C(N/N=C/c1cccc(O)c1O)c1cnc(-c2ccccn2)[nH]c1=O	true
O=C(N/N=C/c1cc(O)ccc1O)c1cnc(-c2ccccn2)[nH]c1=O	false

Check if Ki falls below 0.2 µM for O=C(N/N=C/c1cccc(Cl)c1O)c1cnc(-c2cccnn2)[nH]c1=O .
false

Please indicate whether the reported Ki of O=C(N/N=C/c1cccc(O)c1O)c1cnc(-c2ncccn2)[nH]c1=O is strictly below 0.2 µM.
false

Is it true that Ki reported for O=C(N/N=C/c1cccc(O)c1O)c1cnc(-c2cccnn2)[nH]c1=O is less than 0.2 µM?
true

For O=C(N/N=C/c1ccccc1O)c1cnc(-c2ccccn2)[nH]c1=O , is the recorded Ki below the cut-off of 0.2 µM?
false

Find out if reported Ki for O=C(N/N=C/c1cccc(O)c1Cl)c1cnc(-c2cccnn2)[nH]c1=O is less than 0.2 µM
true
